Tested on: LOX IMVI melanoma
assayNotes: NCI-60 one-dose screen, 48 h (100 = growth as untreated, 0 = no growth, -100 = all killed)
condition: 10 µM
The panel holds about 83,000 compounds, 20% with a hit somewhere; the sample as a whole holds those more often.
readoutType: growth (%)
Numbers only here, please. The scale is %.

Q) Which growth value is on record for `O=[N+]([O-])c1ccc(-c2nc(N(CCO)CCO)c3ccccc3n2)o1` ?
A) -65.6

Q) Field request: growth | item: `CN1C(=O)NC(c2ccc(Cl)cc2)(c2ccc(Cl)cc2)C1=O`
A) 96.2

Q) What measured growth goes with `O=C(OCc1ccccc1)n1nnc2ccccc21` ?
A) 99.6
